Conditions: in water, 303.2 K
Observation type: solubility (mole fraction)

Given item O=C(O)CC(O)C(=O)O (stereo unspecified) , the value recorded as its solubility (mole fraction) is 0.066

---

Conditions: in 1,4-dioxane, 333.2 K
Observation type: solubility (mole fraction)

Given item O=C(O)CC(O)C(=O)O (stereo unspecified) , the value recorded as its solubility (mole fraction) is 0.21

---

Details: in acetonitrile, 303.2 K
Observation type: solubility (mole fraction)
API doc: respond with a numeric literal and nothing else, no unit.

Noted for O=C(O)CC(O)C(=O)O (stereo unspecified) : its solubility (mole fraction) reads 0.007

---

Conditions: in 1,4-dioxane, 313.2 K
Observation type: solubility (mole fraction)
Reply: number alone, nothing else.

Entry under test: O=C(O)CC(O)C(=O)O (stereo unspecified) . Its solubility (mole fraction) was 0.16
